testDescription: yeast display, Sf9 membrane polyspecificity reagent, FACS + sequencing; frameworks hold sequencing errors
metric: polyreactivity (PSR sort gate)

QVQLVESGGGLVQAGGSLRLSCAASGRILFHYAMGGSRPAPGKERELVAAITWRGGGTHYADSVKGRFTISRDNAKNTVYLQMNSLKPEDNAVYYCAADGWTYVYDYGYWGQGTQVTVSS	low polyreactivity
QVQLVESGGGLVQAGCSLRLSCAASGSTFYYYAMGWYRQAPGKERELVAAISNRDGRTYYADSVKGRFTISRDTAKNTVYFQMNSLKPEDSAVYYCNAYSYGHYYWGHGTQVTVSS	high polyreactivity
QVQLVESGGGLVQAGGSLRLSCAASGITIAGYAMGWYRQAPGKERELVAAITIGGRTYYADSVKGRFTISRDNAKNTVYLQMNSLKPVDTAVYYCAAARGFWWYDYWGQGTQVTVSS	high polyreactivity
QVQLVESGGGLVQAGGSLRLSCAASGTNVKGWYRQAPGKERELVAAISGSGGSTYYADSVKGRFTISRDNAKNTVYLQMNSLKPEDTAVYYCAADSIQYTARPYDYWGQVTQVTVSS	low polyreactivity
QVQLVESGGGLVQAGGSLRLSCAASGSTFSDYAMGWYRQAPGKERELVAGITETGTTTYYADSVKGRFTISRDNAKNTVYLQMNSLKPEDTAVYYCAAYVVTYYYGTGYYSYDYWGQGTQVTVSS	low polyreactivity

[in] GET /values?readout=polyreactivity (PSR sort gate)&item= QVQRVESGGGLVQAGGSLRLSCAASGITFKYYGMGWYRRAPGKERELVAAITRSGGSTSYADSVKGRFTISRDNAKNTVYLQMHSLKPEDTAVYYCAAERYVLTWLGIERYYWGQGTQVTVSS
[out] high polyreactivity

Reference for the values: the nanobody polyreactivity screen of Harvey et al. (2022)
